test system: 786-0 renal; experiment: NCI tumour cell line growth inhibition, 48 h
property.name: TGI

Here is how some compounds turned out for TGI.
compound: O=C(Nc1cccc(Oc2nnc(Cl)c3ccccc23)c1)Nc1ccc(Cl)c(C(F)(F)F)c1
measured: 3.01 µM

compound: CC1(C)CCc2cc3c(cc2O1)OCC1c2cc4c(cc2OC31)OCO4 (stereo unspecified)
measured: > 100 µM

compound: O=C(CSC(c1ccccc1)c1ccccc1)N/N=C/c1cccc(Cl)c1
measured: 32.7 µM

compound: CCCCCC(=O)Nc1nc[nH]c1C(N)=O
measured: > 100 µM

compound: COC(=O)[C@H]1C[C@H]1NC(=O)C(CC(=O)OCc1ccccc1)NC(=O)OCc1ccccc1 (stereo partly specified)
measured: > 100 µM

Fill in the recorded TGI for this compound, with 786-0 renal as test system: O=C(CCCN1CCOCC1)Nc1ccc(Cn2nnc3c2C(=O)c2nnn(Cc4ccc(NC(=O)CCCN5CCOCC5)cc4)c2C3=O)cc1 > 100 µM

Fill in the recorded TGI for this compound, with 786-0 renal as test system: c1ccc(C2SCc3nc4cc5ccccc5cc4n32)cc1 (stereo unspecified) > 100 µM

Fill in the recorded TGI for this compound, with 786-0 renal as test system: N#Cc1ccc(N2Cc3ccccc3OC3=C2C(=O)c2c(O)ccc(O)c2C3=O)cc1 0.381 µM

Fill in the recorded TGI for this compound, with 786-0 renal as test system: Nc1ccc(N=Nc2ccc(-c3ccc(O)cc3)cc2)c2ccc(S(=O)(=O)O)cc12 > 100 µM

Fill in the recorded TGI for this compound, with 786-0 renal as test system: CC(=O)Nc1sc([N+](=O)[O-])cc1S(=O)(=O)c1ccc(Cl)cc1 > 100 µM

Fill in the recorded TGI for this compound, with 786-0 renal as test system: Cc1ccc(S(=O)(=O)N/N=c2\c(C)c(C3=NS(=O)(=O)c4cc(S(N)(=O)=O)c(Cl)cc4N3)oc3c(Cl)cc(Cl)cc23)cc1 > 100 µM

###

system: RPMI-8226 leukemia; assay: NCI tumour cell line growth inhibition, 48 h
property.name: TGI

Here is how some molecules turned out for TGI.
molecule: O=C(O)c1ccc([N+]2=Cn3c(nc4ccccc43)C2)cc1
target.entity: RPMI-8226 leukemia
property.name: TGI
measured: > 100 µM

molecule: CC(=O)O[C@H]1CC[C@@]2(C)C(=CC[C@@H]3[C@@H]2CC[C@]2(C)Nc4c(cnn4S(C)(=O)=O)C[C@@H]32)C1
target.entity: RPMI-8226 leukemia
property.name: TGI
measured: > 100 µM

molecule: COc1cnc2c(c1)C(=O)c1c-2n(CCCN2CCC(O)CC2)c(=O)c2cc(F)ccc12
target.entity: RPMI-8226 leukemia
property.name: TGI
measured: 0.63 µM

molecule: O=C1c2ccccc2-c2c1c(-c1ccc([N+](=O)[O-])cc1)nc1ccc3ccccc3c21
target.entity: RPMI-8226 leukemia
property.name: TGI
measured: > 100 µM

Shifting focus to the molecule that follows.
Dear colleague, I am looking for the recorded TGI of the following molecule: C=CC(C=O)C1(O)CCOC(=O)/C1=C\N (stereo not given) > 100 µM

###

tested on: UACC-62 melanoma; test: NCI tumour cell line growth inhibition, 48 h
property.name: TGI

Here is how some compounds turned out for TGI.
mol: O=C(Nc1ccc(Cl)cc1F)c1cc(I)ccc1O
target.entity: UACC-62 melanoma
TGI: 2.19 µM
--
mol: C/C(=N\Oc1cc(Cl)ncn1)c1ccccn1
target.entity: UACC-62 melanoma
TGI: > 100 µM

Dear colleague, I am looking for the recorded TGI of the following compound: O=C1C(c2c(O)[nH]c3ccc(S(=O)(=O)O)cc23)=Nc2ccc(Br)cc21 > 100 µM
